Molecular target: SBD2 (Lactococcus lactis, UniProt Q9CES5)
Sequence (Q9CES5 entry or part of it): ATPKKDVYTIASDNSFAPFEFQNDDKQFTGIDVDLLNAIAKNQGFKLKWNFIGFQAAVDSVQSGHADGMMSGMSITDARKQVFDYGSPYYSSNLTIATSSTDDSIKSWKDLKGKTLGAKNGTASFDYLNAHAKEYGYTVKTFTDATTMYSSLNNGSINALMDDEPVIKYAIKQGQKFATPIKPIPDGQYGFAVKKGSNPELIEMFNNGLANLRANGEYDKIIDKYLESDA
pKd: −log10 of the molar value.
observable: pKd

NC(=O)CC[C@H](N)C(=O)O [glutamine]	5.90

Origin of values: patent US11169138B2
